target: Recombinant Cx43CT (carboxyl terminal domain of connexin43, sequence 255-382 of rCx43 preceded by GPLG) (rat, UniProt P08050); test: SPR, Cx43CT immobilised, peptide at 1 mM
Sequence (P08050 other isoform, or with tags, fused parts or gaps limits assumed): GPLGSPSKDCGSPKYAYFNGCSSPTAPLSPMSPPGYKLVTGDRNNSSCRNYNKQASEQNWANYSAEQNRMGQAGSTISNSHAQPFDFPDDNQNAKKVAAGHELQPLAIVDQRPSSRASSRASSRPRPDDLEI
Reported SPR respons at 1 mM values follow for various binders
# number only, unit arbitrary units dropped from output

Record excerpt, results attached:
[
  {
    "binder": "Ac-RRNYRRNY-NH2 [Compound 2497]",
    "SPR respons at 1 mM / arbitrary units": 565
  },
  {
    "binder": "Ac-RRNYGGGRRNY-NH2 [Compound 2509]",
    "SPR respons at 1 mM / arbitrary units": 479
  },
  {
    "binder": "Ac-RRNYSAVPFYSHSRRNY-NH2 [Compound 2506]",
    "SPR respons at 1 mM / arbitrary units": 1170
  }
]

The value of SPR respons at 1 mM measured for the binder Ac-RRNYSHSRRNY-NH2 [Compound 2507] turned out to be 703
